B1: library; a variant is named by its letters at N, in order (parent)
chain: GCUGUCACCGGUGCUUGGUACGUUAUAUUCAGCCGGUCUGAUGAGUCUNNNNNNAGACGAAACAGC

Variants of: B1
test: normalized RNA/DNA level without ligand (relative to sTRSVctl = 100) (log10 (% of sTRSVctl)); HEK293T overexpressing SLC46A1; higher = less ribozyme self-cleavage, higher mRNA level
conditions used: without (6R,S)-folinic acid; ligand present: no
Measured normalized RNA/DNA level without ligand (log10) by item
observed property: normalized RNA/DNA level without ligand (log10)

variant id	test result
AGGCGG	2.04
CCGGGA	2.04
CCAACA	2.03
ACAACU	2.01
CUUACA	2
CAUUAA	1.95
UUAAAU	1.97
AAGCGU	1.96
CGCUCG	2.05
AUCUGG	1.92
UCCUGU	2
GGUGUU	2.03
CUUAAG	1.91
UUUACC	2
CUGUUC	2.05
GUCGGA	2
CGAAUU	2
UAAAAC	1.97
GGCUUA	2.08
UCGGUC	2.09
AGGGAC	1.97
CCCACG	2.01
